Could you please report measured kcat/KM for the items listed next?
STUDY_SYSTEM: Factor X, P00742
Sequence (P00742 whole entry, looked up): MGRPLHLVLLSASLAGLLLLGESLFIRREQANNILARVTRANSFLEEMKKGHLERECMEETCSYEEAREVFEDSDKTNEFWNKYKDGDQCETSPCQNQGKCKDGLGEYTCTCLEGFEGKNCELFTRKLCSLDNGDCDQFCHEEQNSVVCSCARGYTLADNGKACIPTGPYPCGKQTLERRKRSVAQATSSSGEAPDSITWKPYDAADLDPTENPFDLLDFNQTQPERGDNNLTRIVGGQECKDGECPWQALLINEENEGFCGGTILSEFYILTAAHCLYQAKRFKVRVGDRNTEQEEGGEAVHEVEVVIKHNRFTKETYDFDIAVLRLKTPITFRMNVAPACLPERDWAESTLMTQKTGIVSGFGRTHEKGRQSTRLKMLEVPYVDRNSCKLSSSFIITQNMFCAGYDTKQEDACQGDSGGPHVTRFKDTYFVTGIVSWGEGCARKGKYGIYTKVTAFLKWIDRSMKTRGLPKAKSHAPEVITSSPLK
Give just the numeric value; M⁻¹ s⁻¹ need not be written.

query: Give me measured kcat/KM, please, for this protein: FIXa-D104N/K106S/Y155F/K228N/K247N/N249S (protein) chain 1: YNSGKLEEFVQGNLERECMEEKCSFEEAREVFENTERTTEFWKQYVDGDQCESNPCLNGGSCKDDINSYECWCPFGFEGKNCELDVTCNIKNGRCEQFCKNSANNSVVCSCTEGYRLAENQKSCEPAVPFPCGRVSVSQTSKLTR chain 2: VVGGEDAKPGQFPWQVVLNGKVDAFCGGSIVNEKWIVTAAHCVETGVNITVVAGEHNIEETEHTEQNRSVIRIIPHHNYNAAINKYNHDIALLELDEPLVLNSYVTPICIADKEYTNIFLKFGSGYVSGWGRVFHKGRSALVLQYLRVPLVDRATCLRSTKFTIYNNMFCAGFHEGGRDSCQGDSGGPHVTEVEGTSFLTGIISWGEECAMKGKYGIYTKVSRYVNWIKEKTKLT
result: 6.3e+07

query: Give me measured kcat/KM, please, for this protein: FIXa-N260S/R318Y/R338E/R403E/E410N (protein) chain 1: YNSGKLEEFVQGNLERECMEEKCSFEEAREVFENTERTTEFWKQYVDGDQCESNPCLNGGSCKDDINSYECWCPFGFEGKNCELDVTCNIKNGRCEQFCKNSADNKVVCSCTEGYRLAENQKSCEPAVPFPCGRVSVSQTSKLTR chain 2: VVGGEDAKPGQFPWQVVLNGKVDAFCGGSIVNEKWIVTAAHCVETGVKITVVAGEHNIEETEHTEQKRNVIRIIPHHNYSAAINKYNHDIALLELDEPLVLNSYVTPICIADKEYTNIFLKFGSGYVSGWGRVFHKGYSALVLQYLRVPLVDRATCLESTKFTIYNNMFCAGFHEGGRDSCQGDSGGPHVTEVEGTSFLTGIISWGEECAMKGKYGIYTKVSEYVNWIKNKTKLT
result: 5.3e+07

query: Give me measured kcat/KM, please, for this protein: FIXa-Y155F/K247N/N249S/T343R/R403E (protein) chain 1: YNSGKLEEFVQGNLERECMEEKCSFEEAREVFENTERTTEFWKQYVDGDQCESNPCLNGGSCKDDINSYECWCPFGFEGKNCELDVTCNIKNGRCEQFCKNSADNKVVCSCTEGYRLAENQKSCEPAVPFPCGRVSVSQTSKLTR chain 2: VVGGEDAKPGQFPWQVVLNGKVDAFCGGSIVNEKWIVTAAHCVETGVKITVVAGEHNIEETEHTEQNRSVIRIIPHHNYNAAINKYNHDIALLELDEPLVLNSYVTPICIADKEYTNIFLKFGSGYVSGWGRVFHKGRSALVLQYLRVPLVDRATCLRSTKFRIYNNMFCAGFHEGGRDSCQGDSGGPHVTEVEGTSFLTGIISWGEECAMKGKYGIYTKVSEYVNWIKEKTKLT
result: 8.5e+07

src = patent US20210238260
